Catalogue of molecules with associated IC50
- tested.target: BRG-1 (Homo sapiens, UniProt P51532)
- Construct: made in house; host or cells: High Five insect cells
- Sequence (P51532 whole entry): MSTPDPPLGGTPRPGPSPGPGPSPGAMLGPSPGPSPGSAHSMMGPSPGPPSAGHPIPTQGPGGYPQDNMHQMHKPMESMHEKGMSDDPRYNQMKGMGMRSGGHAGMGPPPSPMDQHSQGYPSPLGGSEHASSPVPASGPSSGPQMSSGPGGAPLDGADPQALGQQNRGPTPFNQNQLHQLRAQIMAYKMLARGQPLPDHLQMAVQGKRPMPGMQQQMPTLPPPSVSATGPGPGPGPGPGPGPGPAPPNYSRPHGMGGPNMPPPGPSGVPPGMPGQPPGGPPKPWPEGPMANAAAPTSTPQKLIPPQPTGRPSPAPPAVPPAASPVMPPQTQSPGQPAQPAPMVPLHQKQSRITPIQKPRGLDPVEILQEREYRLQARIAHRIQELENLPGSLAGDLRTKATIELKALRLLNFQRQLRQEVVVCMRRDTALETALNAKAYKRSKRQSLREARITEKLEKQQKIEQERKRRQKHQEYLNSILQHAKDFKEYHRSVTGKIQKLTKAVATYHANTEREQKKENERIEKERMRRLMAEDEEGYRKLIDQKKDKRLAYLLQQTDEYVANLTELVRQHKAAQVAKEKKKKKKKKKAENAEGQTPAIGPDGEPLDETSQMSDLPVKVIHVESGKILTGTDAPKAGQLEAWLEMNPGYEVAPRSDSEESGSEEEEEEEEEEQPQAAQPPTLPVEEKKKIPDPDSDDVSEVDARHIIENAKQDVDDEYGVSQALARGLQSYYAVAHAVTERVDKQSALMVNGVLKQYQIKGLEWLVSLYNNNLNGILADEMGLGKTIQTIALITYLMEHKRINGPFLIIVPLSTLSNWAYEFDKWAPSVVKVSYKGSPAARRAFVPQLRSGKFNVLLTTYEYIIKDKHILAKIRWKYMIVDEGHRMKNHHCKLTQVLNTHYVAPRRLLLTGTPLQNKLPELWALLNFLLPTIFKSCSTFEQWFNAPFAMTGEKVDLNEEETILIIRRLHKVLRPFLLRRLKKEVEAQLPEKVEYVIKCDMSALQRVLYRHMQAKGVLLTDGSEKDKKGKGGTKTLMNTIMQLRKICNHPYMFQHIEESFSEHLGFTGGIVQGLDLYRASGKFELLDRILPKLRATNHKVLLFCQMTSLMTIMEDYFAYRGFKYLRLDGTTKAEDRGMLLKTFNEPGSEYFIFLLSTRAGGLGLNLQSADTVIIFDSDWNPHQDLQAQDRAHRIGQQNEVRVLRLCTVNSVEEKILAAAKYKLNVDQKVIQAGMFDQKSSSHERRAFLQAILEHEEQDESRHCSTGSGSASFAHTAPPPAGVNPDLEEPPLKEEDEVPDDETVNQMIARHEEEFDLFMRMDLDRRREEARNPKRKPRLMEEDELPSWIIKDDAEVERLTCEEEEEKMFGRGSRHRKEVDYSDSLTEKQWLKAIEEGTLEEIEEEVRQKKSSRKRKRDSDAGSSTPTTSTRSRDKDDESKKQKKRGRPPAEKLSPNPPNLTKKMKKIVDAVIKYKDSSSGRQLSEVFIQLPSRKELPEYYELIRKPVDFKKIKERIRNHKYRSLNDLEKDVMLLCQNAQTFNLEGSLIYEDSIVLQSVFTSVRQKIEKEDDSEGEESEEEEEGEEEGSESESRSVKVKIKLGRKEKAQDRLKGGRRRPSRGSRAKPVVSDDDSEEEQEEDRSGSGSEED
- experiment.notes: ATPase catalytic activity of BRG-1, ADP-Glo in vitro biochemical assay
- measurement.conditions: ATPase catalytic activity, 30 nM BRG-1, 400 μM ATP, read-out: BRG1 IP50 (μM)*

Example entries and their recorded answers appear below.
INPUT: Look up IC50 with BRG-1 (Homo sapiens, UniProt P51532) for this molecule: C[C@@H]1CN(c2nccc(-c3csc(NC(=O)CNC(=O)c4ccn(C(C)(C)C)c4)n3)n2)C[C@H](C)O1
OUTPUT: > 0.01 µM

INPUT: Look up IC50 with BRG-1 (Homo sapiens, UniProt P51532) for this molecule: COC1CC2(C1)CN(c1cccc(-c3csc(NC(=O)CNC(=O)c4ccn(S(C)(=O)=O)c4)n3)c1)C2
OUTPUT: > 0.1 µM

INPUT: Look up IC50 with BRG-1 (Homo sapiens, UniProt P51532) for this molecule: C[C@H]1CCCN(c2cccc(-c3csc(NC(=O)CNC(=O)c4ccn(S(C)(=O)=O)c4)n3)c2)C1
OUTPUT: > 0.01 µM

INPUT: Look up IC50 with BRG-1 (Homo sapiens, UniProt P51532) for this molecule: C[C@@]1(O)CCCN(c2cccc(-c3csc(NC(=O)CNC(=O)c4ccn(S(C)(=O)=O)c4)n3)c2)C1
OUTPUT: > 0.01 µM

INPUT: Look up IC50 with BRG-1 (Homo sapiens, UniProt P51532) for this molecule: CO[C@H]1CCCN(c2cccc(-c3csc(NC(=O)CNC(=O)c4ccn(C(C)(C)C)c4)n3)n2)C1
OUTPUT: > 0.01 µM

INPUT: Look up IC50 with BRG-1 (Homo sapiens, UniProt P51532) for this molecule: CO[C@H]1C[C@@H](Oc2cccc(-c3csc(NC(=O)CNC(=O)c4ccn(S(C)(=O)=O)c4)n3)c2)C1
OUTPUT: > 0.01 µM

New cases:
INPUT: Look up IC50 with BRG-1 (Homo sapiens, UniProt P51532) for this molecule: CSCC[C@H](NC(=O)c1ccn(S(C)(=O)=O)c1)C(=O)Nc1nc(-c2cccc(-c3ccnc(C)c3)c2)cs1
OUTPUT: < 0.01 µM

Origin of measurements: patent US20230079819A1
